Data provenance is patent US20150315211A1.

test system: MCL-1ΔNΔC; test: High-throughput competitive FP binding screen, FITC-MCL-1 SAHB/MCL-1ΔNΔC interaction; note: test concentration or dose not given here
Catalogue of Spec Values readings, one per entry.
Provide a numeric answer; units are not to be included.

CC1=C(CC/C(C)=C/CCC2C=CC(C3=CC(=O)OC3O)OC2O)C(C)(C)CCC1 (centres unmarked) [drawing 207] | 71.82
Cc1cc2c(C(C)C)c(O)c(O)c(C=O)c2c(O)c1-c1c(C)cc2c(C(C)C)c(O)c(O)c(C=O)c2c1O.[Na+].[Na+] | 97.07
O=C1NC(=O)N(CCC2=CCCCC2)C(=O)/C1=C/c1cnc(-c2ccccc2)nc1 [drawing 98] | 63.4
Cc1cc2c(C(C)C)c(O)c(O)c(C=O)c2c(O)c1-c1c(C)cc2c(C(C)C)c(O)c(O)c(C=O)c2c1O [drawing 158] | 97.07
O=C(O)C(Cc1ccccc1)N1C(=O)/C(=C/C=C/c2ccco2)SC1=S (centres unmarked) | 97.44
Oc1c(Cl)cc(Cl)c(Cl)c1Cc1c(O)c(Cl)cc(Cl)c1Cl [drawing 274] | 59.35

*Q* Endpoint output: Spec Values of Nc1c(C(=O)NCc2ccco2)c2nc3ccccc3nc2n1CCc1ccccc1F . Value?
*A* 93.2
